System: 636577-100-R-J1-PDC complex spheroid viability;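 also: luminescence signal used as a proxy for viable cells; viability read after seven days of drug exposure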
Experiment: Anticancer human tumor 636577-100-R-J1-PDC patient-derived endometrial adenocarcinoma cell line growth inhibition [GQUAD]; active = viability on the fitted dose curve at most 10% of control; inactive = the rest
Settings: second compound 0.1 µM; first compound 3.16 µM
Description: DNA G-quadruplex Stabilizer Agents in Combinations in Complex Spheroids A high-throughput screen of multi-cell type tumor spheroids was designed to identify active combinations of DNA G-quadruplex stabilizer agents and targeted small molecules. […] Compounds. […] If the clinical Cmax for an agent had not been determined, the highest concentration tested was 10 microM. […]
Entry note: the call must match one of active, inactive

Would you please look over these solved cases?
[[record]]
molecule = "O=C(c1cc(Cc2n[nH]c(=O)c3ccccc23)ccc1F)N1CCN(C(=O)C2CC2)CC1 + CN(C)c1ccc(Nc2c3ccc(NC(=O)CCN4CCCC4)cc3nc3cc(NC(=O)CCN4CCCC4)ccc23)cc1"
assigned_class = "inactive"

[[record]]
molecule = "COc1cc(C2c3cc4c(cc3C(OC3OC5COC(C)OC5C(O)C3O)C3COC(=O)C23)OCO4)cc(OC)c1O (stereo unspecified) + CN(C)c1ccc(Nc2c3ccc(NC(=O)CCN4CCCC4)cc3nc3cc(NC(=O)CCN4CCCC4)ccc23)cc1"
assigned_class = "inactive"

[[record]]
molecule = "O=C(NO)c1cnc(N2CCN(S(=O)(=O)c3ccc4ccccc4c3)CC2)nc1 + Cc1[nH]c2ccc(F)cc2c1-c1nc2c3cccnc3c3ncccc3c2[nH]1"
assigned_class = "active"

[[record]]
molecule = "COc1ncnc(C2CC2)c1-c1ncc2cnn(Cc3ccc(-c4nc(C(F)(F)F)cn4C(C)C)cc3)c2n1 + CN(C)c1ccc(Nc2c3ccc(NC(=O)CCN4CCCC4)cc3nc3cc(NC(=O)CCN4CCCC4)ccc23)cc1"
assigned_class = "inactive"

[[record]]
molecule = "Cc1cccc(N(C)C(=O)C2C(O)CCN2c2nc(C)cc(C(F)(F)F)c2C#N)c1 (stereo unspecified) + CN(C)c1ccc(Nc2c3ccc(NC(=O)CCN4CCCC4)cc3nc3cc(NC(=O)CCN4CCCC4)ccc23)cc1"
assigned_class = "inactive"


Data request: Tell me the assay call for CC1COCCN1c1cc(C2(O)CC3CCC(C2)O3)c2cnn(-c3ccn[nH]3)c2n1 (stereo unspecified) + Cc1cnc(CNC(=O)c2c(=O)c3ccc(N4CCCN(C)CC4)nc3n3c2sc2ccccc23)cn1 please.
Data returned: active

Data request: Returns: the outcome recorded for C=CCn1c(=O)c2cnc(Nc3ccc(N4CCN(C)CC4)cc3)nc2n1-c1cccc(C(C)(C)O)n1 + CN(C)c1ccc(Nc2c3ccc(NC(=O)CCN4CCCC4)cc3nc3cc(NC(=O)CCN4CCCC4)ccc23)cc1 in this assay.
Data returned: inactive

Data request: How was CC1COCCN1c1cc(C2(S(C)(=N)=O)CC2)nc(-c2ccnc3[nH]ccc23)n1 (stereo unspecified) + CN(C)c1ccc(Nc2c3ccc(NC(=O)CCN4CCCC4)cc3nc3cc(NC(=O)CCN4CCCC4)ccc23)cc1 classified in this test?
Data returned: inactive

Data request: Assay result, entry CC1COCCN1c1cc(-c2ccnn2C)c2ccnc(-c3ccn[nH]3)c2n1 (stereo unspecified) + Cc1[nH]c2ccc(F)cc2c1-c1nc2c3cccnc3c3ncccc3c2[nH]1 — outcome?
Data returned: active

Data request: // param item: C#Cc1c(F)ccc2cc(O)cc(-c3ncc4c(N5CC6CCC(C5)N6)nc(OCC56CCCN5CC(F)C6)nc4c3F)c12 (stereo unspecified) + Cc1[nH]c2ccc(F)cc2c1-c1nc2c3cccnc3c3ncccc3c2[nH]1 ; yields the recorded call
Data returned: inactive
